Assay: Stability test of analytes in rat plasma (QC samples)
Assay type: physicochemical
Settings: high concentration, autosampler at 4 °C for 24 h
Procedure: Stability. To evaluate the stability of each component during analysis, QC samples at low, middle, and high concentrations (three samples for each concentration) were tested under different conditions, including placing QC samples in the autosampler at 4 °C for 24 h, at room temperature for 4 h, at −80 °C for a week, and three freeze-thaw cycles.
measure: 24 h Stability RE (%)

{"columns": ["compound", "unit abbrev", "24 h Stability RE"],
 "data": [
  ["CC1(C)[C@@H](O)CC[C@]2(C)[C@H]3C(=O)C=C4[C@@H]5C[C@@](C)(C(=O)O)CC[C@]5(C)CC[C@@]4(C)[C@]3(C)CC[C@@H]12", "%", 14.35]
]}

I: O=c1ccc2ccc(O)cc2o1 [HDC, 7-hydroxycoumarin]
II: O=C1C[C@@H](c2ccc(O[C@@H]3O[C@H](CO)[C@@H](O)[C@H](O)[C@H]3O)cc2)Oc2cc(O)ccc21
Input line: Form: Entry with minimum 24 h Stability RE (choose one): I / II Lab log: write the label of the selected item as the result.
Output line: I
(I: 1.39%, II: 4.89%)

* * *

experiment: Pharmacokinetics in normal rats after oral administration of Zushima-Gancao extract (UHPLC-MS/MS of plasma); format: in vivo; conditions: male, Sprague-Dawley, rat, oral Zushima-Gancao extract 10 mL/kg single dose, n = 6, mean ± SD
measure: Cmax (ng/mL)

{"columns": ["query smiles", "Cmax [ng/mL]"],
 "data": [
  ["O=C(/C=C/c1ccc(O[C@@H]2O[C@H](CO)[C@@H](O)[C@H](O)[C@H]2O)cc1)c1ccc(O)cc1O", 8.92]
]}

I: O=C1C[C@@H](c2ccc(O)cc2)Oc2cc(O)ccc21
II: COc1cc2cc(Oc3ccc4ccc(=O)oc4c3)c(=O)oc2cc1O
Input line: Name the one with the greater Cmax value, either I or II as given. Lab log: write the label of the selected item as the result.
Output line: I

* * *

experiment: Stability test of analytes in rat plasma (QC samples); assay type: physicochemical; conditions: low concentration, room temperature for 4 h
measure: Short-Term Stability RE (%)

{"columns": ["compound", "reported"],
 "data": [
  ["O=C(/C=C/c1ccc(O)cc1)c1ccc(O)cc1O", "−3.23"]
]}

I: CC1(C)[C@@H](O[C@H]2O[C@H](C(=O)O)[C@@H](O)[C@H](O)[C@H]2O[C@@H]2O[C@H](C(=O)O)[C@@H](O)[C@H](O)[C@H]2O)CC[C@]2(C)[C@H]3C(=O)C=C4[C@@H]5C[C@@](C)(C(=O)O)CC[C@]5(C)CC[C@@]4(C)[C@]3(C)CC[C@@H]12
II: COc1cc2cc(Oc3ccc4ccc(=O)oc4c3)c(=O)oc2cc1O
Input line: Name the one with the greater Short-Term Stability RE value, either I or II as given. Lab log: write the label of the selected item as the result.
Output line: I
(I: 10.26%, II: −13.63%)

* * *

assay: Pharmacokinetics in adjuvant-induced arthritis (AA) rats after oral administration of Zushima-Gancao extract (UHPLC-MS/MS of plasma); conditions: male, Sprague-Dawley, rat, plasma, po, 10 mL/kg
measure: half-life (h)

{"columns": ["query smiles", "half-life / h"],
 "data": [
  ["O=c1ccc2ccc(O)c(O)c2o1", 2.06],
  ["O=C(/C=C/c1ccc(O)cc1)c1ccc(O)cc1O", 1.39],
  ["CC1(C)[C@@H](O[C@H]2O[C@H](C(=O)O)[C@@H](O)[C@H](O)[C@H]2O[C@@H]2O[C@H](C(=O)O)[C@@H](O)[C@H](O)[C@H]2O)CC[C@]2(C)[C@H]3C(=O)C=C4[C@@H]5C[C@@](C)(C(=O)O)CC[C@]5(C)CC[C@@]4(C)[C@]3(C)CC[C@@H]12", 4.88],
  ["CC1(C)[C@@H](O)CC[C@]2(C)[C@H]3C(=O)C=C4[C@@H]5C[C@@](C)(C(=O)O)CC[C@]5(C)CC[C@@]4(C)[C@]3(C)CC[C@@H]12", 4.94],
  ["O=C1C[C@@H](c2ccc(O[C@@H]3O[C@H](CO)[C@@H](O)[C@H](O)[C@H]3O)cc2)Oc2cc(O)ccc21", 0.75]
]}

1: COc1cc2cc(Oc3ccc4ccc(=O)oc4c3)c(=O)oc2cc1O
2: O=C1C[C@@H](c2ccc(O)cc2)Oc2cc(O)ccc21
Input line: Form: Entry with minimum half-life (choose one): 1 / 2 Lab log: write the label of the selected item as the result.
Output line: 2
